Where do the numbers come from? From patent US9169259B2.

target: recombinant human SYK360-635 (Homo sapiens (Human)); assay: SYK kinase assay (33P ATP filtration, IC50 of SYK inhibition); conditions: truncated SYK aa 360-635 0.5 nM, ATP 20 μM, peptide 5 μM, 30° C. 15 min; read-out: ENZYME_FILTRATION_IC50
Where a name gives a salt, the structure may show the parent alone.
parameter measured: IC50 (nM)
Give just the number in nM; leave the unit off.

>  <compound>
Cc1c(C(=O)O)cccc1-c1cc(Nc2cccc(N3CCC[C@@H]3C)n2)c2nccn2n1 [Example I-24]

>  <readout units>
nM

>  <measured value>
194

$$$$
>  <compound>
CC1CCCN1c1cccc(Nc2cc(-c3cccc(OCCN4CCCCC4)c3)nn3ccnc23)n1 (centres unmarked) [Example I-87]

>  <readout units>
nM

>  <measured value>
210

$$$$
>  <compound>
O=C(O)c1cccc(-c2cc(Nc3cccc(N4CC5CC5C4)n3)c3nccn3n2)c1 (centres unmarked) [Example I-23]

>  <readout units>
nM

>  <measured value>
442

$$$$

Report IC50 for CCc1ccc(Nc2cc(-c3ccccc3)nn3ccnc23)nc1 [Example I-2] tested on recombinant human SYK360-635 (Homo sapiens (Human)).
186

// fetch recombinant human SYK360-635 (Homo sapiens (Human)) IC50 for C[C@H]1CCCN1c1cccc(Nc2cc(-c3cccc(Cl)c3)nn3ccnc23)n1 [Example I-71, hydrochloride]
246

API: value(readout=IC50, system=recombinant human SYK360-635 (Homo sapiens (Human))) for record CC1CCCN1c1cccc(Nc2cc(-c3cccc(OCCN4CCOCC4)c3)nn3ccnc23)n1 (centres unmarked) [Example I-88]
51

Param readout= IC50; system= recombinant human SYK360-635 (Homo sapiens (Human)); entry= CC(CO)NC(=O)c1cccc(-c2cc(Nc3cccc(N4CCCC4C)n3)c3nccn3n2)c1 (centres unmarked) [Example I-41] ; returns value.
130

# query: IC50 | item CC1CCCN1c1cccc(Nc2cc(-c3ccc(OCCN4CCOCC4)cc3)nn3ccnc23)n1 (centres unmarked) [Example I-90] | system: recombinant human SYK360-635 (Homo sapiens (Human))
157

Form field: IC50 recorded for CC1CC(C)CN(c2cccc(Nc3cc(-c4cccc(C(=O)O)c4)nn4ccnc34)n2)C1 (centres unmarked) [Example I-38] with recombinant human SYK360-635 (Homo sapiens (Human)) (enter value)
904

Find IC50 (recombinant human SYK360-635 (Homo sapiens (Human))) for the entry CC1CCC(C)N1c1cccc(Nc2cc(-c3cccc(C(=O)O)c3)nn3ccnc23)n1 (centres unmarked) [Example I-60]
231

Lab note: need IC50 for CC1(C)CCN(c2cccc(Nc3cc(-c4ccccc4)nn4ccnc34)n2)C1 [Example I-34] on recombinant human SYK360-635 (Homo sapiens (Human)), anyone have it?
1050

Return IC50 measured with recombinant human SYK360-635 (Homo sapiens (Human)) given this compound: CC1CCCN1c1cccc(Nc2cc(-c3ccc4[nH]ncc4c3)nn3ccnc23)n1 (centres unmarked) [Example I-37]
98.1

Form entry - test system: recombinant human SYK360-635 (Homo sapiens (Human)); read-out: IC50; compound: COCC1CCCN1c1cccc(Nc2cc(-c3cccc(C(=O)O)c3)nn3ccnc23)n1 (centres unmarked) [Example I-36]
345

----------
Molecular target: recombinant human SYK360-635 (Homo sapiens (Human), UniProt P43405)
Assay: SYK kinase assay (33P ATP filtration, IC50 of SYK inhibition)
Settings: truncated SYK aa 360-635 0.5 nM, ATP 20 μM, peptide 5 μM, 30° C. 15 min; read-out: ENZYME_FILTRATION_IC50
Experimental: Determination of IC50 of Spleen Tyrosine Kinase (SYK) Inhibition: SYK kinase assay is a standard kinase assay adapted to a 96 well plate format. This assay is performed in 96-well format for IC50 determination with […] which represented 10 half log dilutions and a 40 μL reaction volume. […] Phosphorylated products were detected upon termination of reactions with EDTA and the addition of Streptavidin coated beads. […]
Reported pIC50 values for the following molecules.
In textbook form, pIC50 equals minus log to base ten of the concentration in mol/L.

>  <molecule>
COc1ccc(Nc2cc(-c3cccc(C(=O)Nc4ccc5c(c4)CNC5=O)c3)nn3ccnc23)nc1OC

>  <measured value>
6.23

$$$$
>  <molecule>
CC1CCCN1c1cccc(Nc2cc(-c3ccc(F)cc3)nn3ccnc23)n1 (centres unmarked)

>  <measured value>
6.31

$$$$
>  <molecule>
COC(=O)c1cccc(-c2cc(Nc3cccc(N4CCCC4C)n3)c3nccn3n2)c1 (centres unmarked)

>  <measured value>
6.32

$$$$
>  <molecule>
COc1ccc(Nc2cc(N3CCCC(C(=O)Nc4ccc(C(=O)O)cc4)C3)nn3ccnc23)nc1OC (centres unmarked)

>  <measured value>
7.83

$$$$
>  <molecule>
COc1ccc(Nc2cc(-c3ccc(C(=O)NCCc4ccn(C)c(=O)c4)cc3)nn3ccnc23)nc1OC

>  <measured value>
7.10

$$$$

Any idea what its pIC50 is? The molecule is CC1CCCN1c1cccc(Nc2cc(-c3cccc(C(=O)NCCO)c3)nn3ccnc23)n1 (centres unmarked)
7.37

Given the entry COc1ccc(Nc2cc(N3CCC(C(=O)Nc4ccc(C(=O)O)cc4)C3)nn3ccnc23)nc1OC (centres unmarked) , report its measured pIC50.
6.34
